// provenance: patent US20150368338A1

Kd listing for selected binders.
TGT: T1, IFN-αC (human, UniProt P01566 24-189)
T1 construct: also called IFN-α10; alpha C
ASSAY_EXPLANATION: ProteOn, one antigen concentration
Number only, in nM; omit the unit.

// known answers, use as guide
BINDER: IFWM3306 (antibody, V domains shown, VH IFWH591, VL IFWL1000; converted mAb; also called IFWB3041) VH: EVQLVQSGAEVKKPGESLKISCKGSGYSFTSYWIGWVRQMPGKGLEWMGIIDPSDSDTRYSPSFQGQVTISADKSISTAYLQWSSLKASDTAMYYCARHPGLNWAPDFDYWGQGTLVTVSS VL: DIQMTQSPSSLSASVGDRVTITCRASQSITNFLNWYQQKPGKAPKLLIYFASSLQSGVPSRFSGSGSGTDFTLTISSLQPEDFATYYCQQSLDFPLTFGQGTKVEIK
UOM: nM
Kd: 0.027

BINDER: IFWM3329 (antibody, V domains shown, VH IFWH591, VL IFWL1067; converted mAb; also called IFWB3064) VH: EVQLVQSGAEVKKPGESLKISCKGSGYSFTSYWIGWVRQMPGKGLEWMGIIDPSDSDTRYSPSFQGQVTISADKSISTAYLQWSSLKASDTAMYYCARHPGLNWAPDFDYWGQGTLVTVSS VL: DIQMTQSPSSLSASVGDRVTITCRASQSIRNNNLNWYQQKPGKAPKLLIHWASSLQSGVPSRFSGSGSGTDFTLTISSLQPEDFATYYCQQGYDTPFTFGQGTKVEIK
UOM: nM
Kd: 0.05

For the binder IFWM3344 (antibody, V domains shown, VH IFWH624, VL IFWL998; converted mAb; also called IFWB3079) VH: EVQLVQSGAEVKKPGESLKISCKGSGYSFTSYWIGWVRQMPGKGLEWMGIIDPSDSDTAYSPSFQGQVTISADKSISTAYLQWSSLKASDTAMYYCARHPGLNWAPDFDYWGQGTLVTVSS VL: DIQMTQSPSSLSASVGDRVTITCRASQSISKFLNWYQQKPGKAPKLLIYFASSLQSGVPSRFSGSGSGTDFTLTISSLQPEDFATYYCQQSNTLPFTFGQGTKVEIK , what Kd is on record?
0.161
